The reader will find reported inhibition values listed item by item below.
Test system: Plasmodium falciparum
Experiment: Inhibition of Plasmodium falciparum protein farnesyltransferase at 5 nM by scintillation proximity assay
Unit % implied. Number only.

Answered cases to consult:
Cn1cncc1CN1CC(N(CCc2ccccc2F)S(=O)(=O)c2ccccn2)Cc2cc(C#N)ccc21 (stereo not given) :: 81
Cn1cnc(CN2CC(N(CCNC(=O)OC(C)(C)C)S(=O)(=O)c3cn(C)cn3)Cc3cc(-c4ccccc4)ccc32)c1 (stereo not given) :: 81
Cn1cncc1CN1CC(N(Cc2ocnc2-c2ccccc2)S(=O)(=O)c2ccccn2)Cc2cc(C#N)ccc21 (stereo not given) :: 82
Cn1cncc1CN1CC(N(CCn2ccc3ccccc32)S(=O)(=O)c2ccccn2)Cc2cc(C#N)ccc21 (stereo not given) :: 79

Lookup: Which inhibition reading was recorded for the compound COC(=O)N1CCC(CN(C2Cc3cc(C#N)ccc3N(Cc3cncn3C)C2)S(=O)(=O)c2cccc3ccccc23)CC1 (stereo not given) ?
Found: 39

----------
Tested on: Plasmodium falciparum
Assay: Antimalarial activity against Plasmodium falciparum K1
Type: functional
Details: Plasmodium falciparum, K1; read-out: ED50 (the source's name)
attribute.measured: EC50 (nM)
Report as a plain number; the unit nM is understood.

Cn1cnc(S(=O)(=O)N(Cc2ccc3nonc3c2)C2Cc3cc(C#N)ccc3N(Cc3cncn3C)C2)c1 (centres undefined) :: 65
CCCC(=O)N1CCC(CN(C2Cc3cc(C#N)ccc3N(Cc3cncn3C)C2)S(=O)(=O)c2ccccn2)CC1 (centres undefined) :: 690
Cn1cnc(S(=O)(=O)N(CCCCC(=O)NCCN)C2Cc3cc(C#N)ccc3N(Cc3cncn3C)C2)c1 (centres undefined) :: 130

Lookup: What measured EC50 goes with Cn1cncc1CN1CC(N(CC2CCN(C(=O)CC(C)(C)C)CC2)S(=O)(=O)c2ccccn2)Cc2cc(C#N)ccc21 (centres undefined) ?
Found: 76

Lookup: Please give the measured EC50 for this molecule: Cn1cncc1CN1CC(N(CCc2ccccc2F)S(=O)(=O)c2ccccn2)Cc2cc(C#N)ccc21 (centres undefined)
Found: 600

Lookup: # query: EC50 of entry CCNC(=O)N1CCC(CN(C2Cc3cc(C#N)ccc3N(Cc3cncn3C)C2)S(=O)(=O)c2ccccn2)CC1 (centres undefined)
Found: 65

Lookup: EC50 for Cn1cnc(S(=O)(=O)N(CCN2CCCC2=O)C2Cc3cc(C#N)ccc3N(Cc3cncn3C)C2)c1 (centres undefined) ?
Found: 60

----------
Tested on: Plasmodium falciparum
Test: Antimalarial activity against Plasmodium falciparum K1
Assay type: functional
Settings: Plasmodium falciparum, K1; read-out: ED50 (the source's name)
Class membership depends on EC50 alone; the intervals are range 1 = under 200 nM, range 2 = from 200 nM up to 400 nM, range 3 = 400 nM and over

A selection of reference data follows.
Cn1cnc(CN2CC(NS(=O)(=O)c3ccccn3)Cc3cc(-c4ccccc4)ccc32)c1 (configuration not stated) :: range 3
Cn1cncc1CN1CC(N(CC2CCN(C(=O)c3ccco3)CC2)S(=O)(=O)c2ccccn2)Cc2cc(C#N)ccc21 (configuration not stated) :: range 1
CCOC(=O)N1CCC(CN(C2Cc3cc(C#N)ccc3N(Cc3cncn3C)C2)S(=O)(=O)c2ccccn2)CC1 (configuration not stated) :: range 1
Cn1cncc1CN1CC(N(CCNC(=O)OC(C)(C)C)S(=O)(=O)c2ccccn2)Cc2cc(C#N)ccc21 (configuration not stated) :: range 2
COC(=O)N1CCC(CN(C2Cc3cc(C#N)ccc3N(Cc3cncn3C)C2)S(=O)(=O)c2cnn(C)c2)CC1 (configuration not stated) :: range 1
COC(=O)N1CCC(CN(C2Cc3cc(C#N)ccc3N(Cc3cncn3C)C2)S(=O)(=O)c2cc(C)cs2)CC1 (configuration not stated) :: range 1

Lookup: Bin this entry: COC(=O)N1CCC(CN(C2Cc3cc(C#N)ccc3N(Cc3cncn3C)C2)S(=O)(=O)c2cccc(F)c2)CC1 (configuration not stated)
Found: range 1

Lookup: Record CC(C)OC(=O)N1CCC(CN(C2Cc3cc(-c4ccccc4)ccc3N(Cc3cn(C)cn3)C2)S(=O)(=O)c2cn(C)cn2)CC1 (configuration not stated) — which class?
Found: range 2

Lookup: Given CC(C)COC(=O)N1CCC(CN(C2Cc3cc(C#N)ccc3N(Cc3cncn3C)C2)S(=O)(=O)c2ccccn2)CC1 (configuration not stated) , name the class its EC50 places it in.
Found: range 1

Lookup: Sort COC(=O)c1ccsc1S(=O)(=O)N(CC1CCN(C(=O)OC)CC1)C1Cc2cc(C#N)ccc2N(Cc2cncn2C)C1 (configuration not stated) into one of the categories.
Found: range 3

Lookup: Kindly identify the class of Cn1cnc(S(=O)(=O)N(Cc2cccc3nsnc23)C2Cc3cc(C#N)ccc3N(Cc3cncn3C)C2)c1 (configuration not stated) .
Found: range 2

Lookup: The entry to classify is Cc1c(S(=O)(=O)N(CC2CCN(C(=O)OC(C)(C)C)CC2)C2Cc3cc(C#N)ccc3N(Cc3cncn3C)C2)ncn1C (configuration not stated) ; which class holds it?
Found: range 1

Lookup: Looking at Cn1cncc1CN1CC(N(CCCCN2C(=O)c3ccccc3C2=O)S(=O)(=O)c2ccccn2)Cc2cc(C#N)ccc21 (configuration not stated) , which class would you pick?
Found: range 3

Lookup: Band assignment needed for Cn1cnc(CN2CC(N(CCS(C)(=O)=O)S(=O)(=O)c3cn(C)cn3)Cc3cc(-c4ccccc4)ccc32)c1 (configuration not stated) please.
Found: range 3

Lookup: Into which bin does this molecule go? Cn1cncc1CN1CC(N(Cc2ccccc2F)S(C)(=O)=O)Cc2cc(C#N)ccc21 (configuration not stated)
Found: range 3

Lookup: Which category fits this record: CN(C)CCCN(C1Cc2cc(C#N)ccc2N(Cc2cncn2C)C1)S(=O)(=O)c1cn(C)cn1 (configuration not stated)
Found: range 3

Lookup: Lab note: sort COC(=O)N1CCC(CN(C2Cc3cc(C#N)ccc3N(Cc3cncn3C)C2)S(=O)(=O)c2cccc3nsnc23)CC1 (configuration not stated) into the matching EC50 band.
Found: range 1

Lookup: Field: class (EC50) — entry: Cn1cncc1CN1CC(N(Cc2ccccc2C(F)(F)F)S(=O)(=O)c2ccccn2)Cc2cc(C#N)ccc21 (configuration not stated)
Found: range 3

Lookup: Into which category would you place Cn1cc(S(=O)(=O)N(Cc2ccccc2F)C2Cc3cc(C#N)ccc3N(Cc3cncn3C)C2)cn1 (configuration not stated) ?
Found: range 1

Lookup: Exam item: assign Cc1ccccc1CN(C1Cc2cc(-c3ccccc3)ccc2N(Cc2cn(C)cn2)C1)S(=O)(=O)c1cn(C)cn1 (configuration not stated) to the correct category.
Found: range 3

----------
Test system: Plasmodium falciparum
Assay: Antimalarial activity against Plasmodium falciparum K1
Assay type: functional
Settings: Plasmodium falciparum, K1; read-out: ED50 (the source's name)
Criterion: EC50 strictly under 2000 nM. Met: yes. Not met: no.

Field: example entries. Status: answers known.
Cn1cnc(S(=O)(=O)N(Cc2ccc(S(C)(=O)=O)cc2Cl)C2Cc3cc(C#N)ccc3N(Cc3cncn3C)C2)c1 (centres undefined) :: yes
Cn1cncc1CN1CC(N(CC(=O)NC(C)(C)C)S(=O)(=O)c2c[nH]cn2)Cc2cc(C#N)ccc21 (centres undefined) :: no
Cn1cncc1CN1CC(N(CC(=O)NC(C)(C)C)S(=O)(=O)c2ccc(F)cc2)Cc2cc(C#N)ccc21 (centres undefined) :: no
CC(=O)OCC(=O)N(Cc1ccccc1F)C1Cc2cc(C#N)ccc2N(Cc2cncn2C)C1 (centres undefined) :: yes
COC(=O)N1CCC(CN(C2Cc3cc(C#N)ccc3N(S(=O)(=O)c3cncn3C)C2)S(=O)(=O)c2ccccn2)CC1 (centres undefined) :: no
Cn1cncc1CN1CC(N(CCOc2cccc3c2OCCO3)S(=O)(=O)c2ccccn2)Cc2cc(C#N)ccc21 (centres undefined) :: yes
Cn1cncc1CN1CC(N(CC(=O)NC(C)(C)C)S(=O)(=O)CCN2C(=O)c3ccccc3C2=O)Cc2cc(C#N)ccc21 (centres undefined) :: no
Cn1cnc(CN2CC(N(CC(=O)NC(C)(C)C)S(=O)(=O)c3cn(C)cn3)Cc3cc(-c4ccccc4)ccc32)c1 (centres undefined) :: yes

Let's switch to this compound now.
Lookup: Is the reported EC50 for Cn1cnc(S(=O)(=O)N(CC(=O)NC(C)(C)C)C2Cc3cc(C(=O)NC4CCCCC4)ccc3N(Cc3cncn3C)C2)c1 (centres undefined) strictly below 2000 nM?
Found: no

----------
Test system: Plasmodium falciparum
Assay: Inhibition of Plasmodium falciparum protein farnesyltransferase at 50 nM by scintillation proximity assay
The label depends only on inhibition: met if it is at least 80%, not met if it is smaller.

Lookup: Would you say Cn1cnc(S(=O)(=O)N(CCc2c[nH]c3ccccc23)C2Cc3cc(C#N)ccc3N(Cc3cncn3C)C2)c1 (stereo unspecified) shows inhibition at minimum 80%?
Found: met

Lookup: Please check the record Cn1cncc1CN1CC(N(CC2CCN(C(=O)OC(C)(C)C)CC2)S(=O)(=O)c2ccccn2)Cc2cc(C#N)ccc21 (stereo unspecified) and state if its inhibition is at or above 80%.
Found: met

Lookup: For this compound, is measured inhibition 80% or higher? Cn1cnc(S(=O)(=O)N(Cc2ccc(S(C)(=O)=O)cc2Cl)C2Cc3cc(C#N)ccc3N(Cc3cncn3C)C2)c1 (stereo unspecified)
Found: met

Lookup: Is inhibition at least 80%? Consider Cn1cncc1CN1CC(N(Cc2cccc3nsnc23)S(=O)(=O)c2ccccn2)Cc2cc(C#N)ccc21 (stereo unspecified)
Found: met

Lookup: Has Cn1cncc1CN1CC(N(Cc2ccccc2F)S(=O)(=O)c2cccc3nsnc23)Cc2cc(C#N)ccc21 (stereo unspecified) a recorded inhibition greater than or equal to 80%?
Found: not met
